assayEndpoint: melting point

Would you please look over these solved cases?
[[record]]
compound = "O=S(=O)(NCCCNc1ccnc2cc(C(F)(F)F)ccc12)c1ccc(Cl)cc1Cl [Compound 38]"
result = "117 to 119 °C"

[[record]]
compound = "Cc1ccc(S(=O)(=O)NCCCNc2ccnc3cc(C(F)(F)F)ccc23)cc1 [Compound 35]"
result = "77 to 79 °C"

[[record]]
compound = "O=[N+]([O-])c1cccc(S(=O)(=O)N2CCN(c3ccnc4cc(Cl)ccc34)CC2)c1 [Compound 12]"
result = "138 to 140 °C"


Next item in the queue.
Would you kindly share the measured melting point for O=S(=O)(NCCCNc1ccnc2cc(C(F)(F)F)ccc12)c1ccc(-c2ccccc2)cc1 [Compound 36] ?
110 to 112 °C

###

- Test system: MCF10A
- assayRemarks: SRB antiproliferative/antigrowth assay, non-cancer cells
- Assay type: cell-based, human
- testContext: Homo sapiens, MCF-10A, 48 h, SRB, 48 h post-treatment, non-cancer breast epithelial cells; read-out: GI50 MCF10A
assayEndpoint: log10 GI50 (log10 of the value in µM)
// units: µM (pre-log); metric: GI50; scale: log10

Would you please look over these solved cases?
[[record]]
mol = "O=S(=O)(c1ccc(Cl)cc1Cl)N1CCN(c2ccnc3cc(C(F)(F)F)ccc23)CC1"
target = "MCF10A"
measurednumber = 1.19

[[record]]
mol = "O=S(=O)(NCCCNc1ccnc2cc(Cl)ccc12)c1ccc(Cl)cc1"
target = "MCF10A"
measurednumber = 0.99

[[record]]
mol = "O=S(=O)(NCCCNc1ccnc2cc(Cl)ccc12)c1ccc(-c2ccccc2)cc1"
target = "MCF10A"
measurednumber = 0.41

[[record]]
mol = "CN(C)c1cccc2c(S(=O)(=O)NCCCNc3ccnc4cc(Cl)ccc34)cccc12"
target = "MCF10A"
measurednumber = 0.41

[[record]]
mol = "CN(C)c1cccc2c(S(=O)(=O)N3CCN(c4ccnc5cc(Cl)ccc45)CC3)cccc12"
target = "MCF10A"
measurednumber = 1.51

[[record]]
mol = "O=S(=O)(c1ccc(Cl)cc1Cl)N1CCN(c2ccnc3cc(Cl)ccc23)CC1"
target = "MCF10A"
measurednumber = 0.95

[[record]]
mol = "O=S(=O)(c1ccc(Cl)cc1)N1CCN(c2ccnc3cc(Cl)ccc23)CC1"
target = "MCF10A"
measurednumber = 0.94


Next item in the queue.
Would you kindly share the measured log10 GI50 for `CS(=O)(=O)N1CCN(c2ccnc3cc(C(F)(F)F)ccc23)CC1` ?
1.88

###

Please respond with reported GI50 for every item in the list.
- System: MCF10A
- assayRemarks: SRB antiproliferative/antigrowth assay, non-cancer cells
- Type: cell-based, human
- testContext: Homo sapiens, MCF-10A, 48 h, SRB, 48 h post-treatment, non-cancer breast epithelial cells; read-out: GI50 MCF10A

Would you please look over these solved cases?
[[record]]
compound = "CN(C)c1cccc2c(S(=O)(=O)NCCCNc3ccnc4cc(C(F)(F)F)ccc34)cccc12 [Compound 41]"
target = "MCF10A"
assayendpoint = "GI50"
result = "6.5 µM"

[[record]]
compound = "O=[N+]([O-])c1cccc(S(=O)(=O)N2CCN(c3ccnc4cc(Cl)ccc34)CC2)c1 [Compound 12]"
target = "MCF10A"
assayendpoint = "GI50"
result = "15.5 µM"

[[record]]
compound = "O=S(=O)(NCCCNc1ccnc2cc(C(F)(F)F)ccc12)c1ccc(Cl)cc1 [Compound 37]"
target = "MCF10A"
assayendpoint = "GI50"
result = "17.4 µM"


For every listed record, write down its GI50.
1. O=S(=O)(c1ccc(Cl)cc1)N1CCN(c2ccnc3cc(C(F)(F)F)ccc23)CC1 [Compound 19]
2. CS(=O)(=O)N1CCN(c2ccnc3cc(Cl)ccc23)CC1 [Compound 7]
3. O=S(=O)(NCCCNc1ccnc2cc(C(F)(F)F)ccc12)c1ccc(Cl)cc1Cl [Compound 38]
4. Cc1ccc(S(=O)(=O)NCCCNc2ccnc3cc(C(F)(F)F)ccc23)cc1 [Compound 35]
5. Cc1ccc(S(=O)(=O)NCCCNc2ccnc3cc(Cl)ccc23)cc1 [Compound 26]

1: 13.6 µM; 2: 15.3 µM; 3: 5.3 µM; 4: 10.9 µM; 5: 12.2 µM

###

assayEndpoint: melting point

For every listed record, write down its melting point.
1. O=S(=O)(c1ccc(Cl)cc1Cl)N1CCN(c2ccnc3cc(Cl)ccc23)CC1
2. O=[N+]([O-])c1ccc(S(=O)(=O)NCCCNc2ccnc3cc(Cl)ccc23)c([N+](=O)[O-])c1
3. O=S(=O)(c1ccc(Cl)cc1Cl)N1CCN(c2ccnc3cc(C(F)(F)F)ccc23)CC1
4. O=[N+]([O-])c1ccc(S(=O)(=O)NCCCNc2ccnc3cc(C(F)(F)F)ccc23)c([N+](=O)[O-])c1
5. O=[N+]([O-])c1cccc(S(=O)(=O)NCCCNc2ccnc3cc(C(F)(F)F)ccc23)c1
6. O=S(=O)(c1ccc(Cl)cc1)N1CCN(c2ccnc3cc(C(F)(F)F)ccc23)CC1

["145 to 147 °C", "238 to 240 °C", "137 to 139 °C", "198 to 200 °C", "98 to 100 °C", "144 to 146 °C"]

Would you kindly share the measured melting point for `Cc1ccc(S(=O)(=O)N2CCN(c3ccnc4cc(Cl)ccc34)CC2)cc1` ?
190 to 192 °C

###

- System: MDA-MB231
- assayRemarks: SRB antiproliferative/antigrowth assay
- Format: cell-based, human
- testContext: Homo sapiens, MDA-MB-231, 48 h, SRB, 48 h post-treatment, mean of triplicates of at least two experiments; read-out: GI50 MB231
assayEndpoint: GI50 (µM)
Give bare numbers, in µM.

Would you please look over these solved cases?
[[record]]
mol = "O=[N+]([O-])c1cccc(S(=O)(=O)N2CCN(c3ccnc4cc(Cl)ccc34)CC2)c1"
assayendpoint = "GI50"
measurednumber = 34.7

[[record]]
mol = "COC(=O)c1sccc1S(=O)(=O)N1CCN(c2ccnc3cc(Cl)ccc23)CC1"
assayendpoint = "GI50"
measurednumber = 40.4

[[record]]
mol = "O=S(=O)(NCCCNc1ccnc2cc(Cl)ccc12)c1ccc(Cl)cc1"
assayendpoint = "GI50"
measurednumber = 11.8


For every listed record, write down its GI50.
1. CS(=O)(=O)NCCCNc1ccnc2cc(C(F)(F)F)ccc12
2. Cc1ccc(S(=O)(=O)NCCCNc2ccnc3cc(Cl)ccc23)cc1
3. O=[N+]([O-])c1cccc(S(=O)(=O)NCCCNc2ccnc3cc(C(F)(F)F)ccc23)c1
4. CN(C)c1cccc2c(S(=O)(=O)NCCCNc3ccnc4cc(C(F)(F)F)ccc34)cccc12
5. Cc1ccc(S(=O)(=O)N2CCN(c3ccnc4cc(Cl)ccc34)CC2)cc1

[55.9, 6.2, 15.7, 14.2, 34.1]

For every listed record, write down its GI50.
1. O=S(=O)(c1ccc(Cl)cc1)N1CCN(c2ccnc3cc(Cl)ccc23)CC1
2. O=S(=O)(c1ccc(Cl)cc1Cl)N1CCN(c2ccnc3cc(C(F)(F)F)ccc23)CC1
3. Cc1ccc(S(=O)(=O)NCCCNc2ccnc3cc(C(F)(F)F)ccc23)cc1
4. CS(=O)(=O)N1CCN(c2ccnc3cc(Cl)ccc23)CC1
5. O=[N+]([O-])c1cccc(S(=O)(=O)N2CCN(c3ccnc4cc(C(F)(F)F)ccc34)CC2)c1
6. CS(=O)(=O)NCCCNc1ccnc2cc(Cl)ccc12
7. Cc1ccc(S(=O)(=O)N2CCN(c3ccnc4cc(C(F)(F)F)ccc34)CC2)cc1

[25.5, 20.3, 6.4, 42.7, 32.2, 40.9, 42.7]

For every listed record, write down its GI50.
1. COC(=O)c1sccc1S(=O)(=O)NCCCNc1ccnc2cc(C(F)(F)F)ccc12
2. CN(C)c1cccc2c(S(=O)(=O)N3CCN(c4ccnc5cc(C(F)(F)F)ccc45)CC3)cccc12

7.5
22.1

###

assayEndpoint: melting point

Would you please look over these solved cases?
[[record]]
compound = "Cc1ccc(S(=O)(=O)N2CCN(c3ccnc4cc(C(F)(F)F)ccc34)CC2)cc1 [Compound 17]"
result = "126 to 128 °C"

[[record]]
compound = "O=S(=O)(NCCCNc1ccnc2cc(Cl)ccc12)c1ccc(-c2ccccc2)cc1 [Compound 27]"
result = "116 to 118 °C"

[[record]]
compound = "O=[N+]([O-])c1cccc(S(=O)(=O)N2CCN(c3ccnc4cc(C(F)(F)F)ccc34)CC2)c1 [Compound 21]"
result = "199 to 201 °C"

[[record]]
compound = "COC(=O)c1sccc1S(=O)(=O)N1CCN(c2ccnc3cc(Cl)ccc23)CC1 [Compound 15]"
result = "117 to 119 °C"

[[record]]
compound = "CN(C)c1cccc2c(S(=O)(=O)N3CCN(c4ccnc5cc(C(F)(F)F)ccc45)CC3)cccc12 [Compound 23]"
result = "98 to 100 °C"

[[record]]
compound = "O=S(=O)(NCCCNc1ccnc2cc(Cl)ccc12)c1ccc(Cl)cc1Cl [Compound 29]"
result = "145 to 147 °C"


For every listed record, write down its melting point.
1. COC(=O)c1sccc1S(=O)(=O)N1CCN(c2ccnc3cc(C(F)(F)F)ccc23)CC1 [Compound 24]
2. O=[N+]([O-])c1ccc(S(=O)(=O)N2CCN(c3ccnc4cc(C(F)(F)F)ccc34)CC2)c([N+](=O)[O-])c1 [Compound 22]
3. COC(=O)c1sccc1S(=O)(=O)NCCCNc1ccnc2cc(C(F)(F)F)ccc12 [Compound 42]
4. CS(=O)(=O)N1CCN(c2ccnc3cc(C(F)(F)F)ccc23)CC1 [Compound 16]

1. 117 to 119 °C
2. 178 to 180 °C
3. 137 to 139 °C
4. 116 to 118 °C

For every listed record, write down its melting point.
1. CN(C)c1cccc2c(S(=O)(=O)NCCCNc3ccnc4cc(C(F)(F)F)ccc34)cccc12 [Compound 41]
2. O=S(=O)(NCCCNc1ccnc2cc(C(F)(F)F)ccc12)c1ccc(Cl)cc1 [Compound 37]
3. CS(=O)(=O)NCCCNc1ccnc2cc(C(F)(F)F)ccc12 [Compound 34]

199 to 201 °C
70 to 72 °C
171 to 173 °C

For every listed record, write down its melting point.
1. CN(C)c1cccc2c(S(=O)(=O)NCCCNc3ccnc4cc(Cl)ccc34)cccc12 [Compound 32]
2. O=S(=O)(c1ccc(-c2ccccc2)cc1)N1CCN(c2ccnc3cc(C(F)(F)F)ccc23)CC1 [Compound 18]
3. CN(C)c1cccc2c(S(=O)(=O)N3CCN(c4ccnc5cc(Cl)ccc45)CC3)cccc12 [Compound 14]

1: 190 to 192 °C; 2: 148 to 150 °C; 3: 145 to 147 °C
